Test system: IGROV1 ovarian
Assay: NCI tumour cell line growth inhibition, 48 h
experimental endpoint: GI50

compound	GI50
CN(C)c1ccc(N=C(C#N)c2nc(N)nc(N3CCOCC3)n2)cc1	34 µM
CCOC(=O)/C(=C/c1c(-c2ccccc2)[nH]c2ccccc12)C(=O)c1ccc(Cl)cc1	19.9 µM
c1ccc(CNc2nc(Nc3ccc(-c4nc5ccccc5[nH]4)cc3)c3cn[nH]c3n2)cc1	2.49 µM
C=C(CNCCc1ccc(O)cc1)[C@@H]1CC[C@]2(CO)CC[C@]3(C)[C@H](CC[C@@H]4[C@@]5(C)CCC(NCCO)C(C)(C)[C@@H]5CC[C@]43C)[C@@H]12 (some centres undefined)	1.94 µM
CCN(CC)c1ccc(/C=C/C2=[N+](C)c3ccccc3C2(C)C)cc1	0.709 µM

Go through the items and report each one's GI50.
1. Cn1cc(-c2nonc2-c2cn(C)c3ccc(Br)cc23)c2ccccc21
2. O=C1/C(=C\c2ccccc2)CN(C(=O)c2ccccc2F)C/C1=C\c1ccccc1
3. CC[C@]12C=CCN3CC[C@]4(C(=C(C(=O)OC)C1)Nc1ccccc14)[C@@H]32
4. CC/C(=C(/CC)c1ccc(OP(=O)([O-])[O-])cc1)c1ccc(OP(=O)([O-])[O-])cc1.N.N.N.N.[Pt+4].[Pt+4]

1: 5.13 µM; 2: 2.08 µM; 3: 5.8 µM; 4: 5.36 µM

* * *

For each record, write down the corresponding TGI.
Tested on: NCI-H522 lung
Test: NCI tumour cell line growth inhibition, 48 h
Answers are plain numbers, in µM.

>>> df
                               smiles_input  recorded_number
0  O=C(c1no[n+]([O-])c1C(=O)c1csc2ccccc12)c1csc2ccccc12            0.843

# context switch: different molecule, same TGI
Consider the molecule `COC(=O)[C@@H](COC(=O)/C=C/c1ccc(OC(C)=O)c(OC(C)=O)c1)NC(=O)/C=C/c1ccc(OC(C)=O)c(OC(C)=O)c1` . State its measured TGI.
35.1

* * *

For each record, write down the corresponding TGI.
Test system: COLO 205 colon
Assay: NCI tumour cell line growth inhibition, 48 h

                                   molecule   tested_system  experimental_endpoint    result
0  CC(C)Cn1cnnc1NS(=O)(=O)c1cc(C(=O)NN)c(Cl)cc1S  COLO 205 colon                    TGI   > 10 µM
1          CSc1nc2ccccc2c(=O)n1-c1cccc(C)c1  COLO 205 colon                    TGI  > 100 µM
2  CCCCCCCCCCCCCCCc1ccc(C(=O)C[n+]2ccccc2)cc1  COLO 205 colon                    TGI   1.67 µM
3  C[N+](C)(C)C(Cc1c[nH]c(=S)[nH]1)C(=O)O (stereo not given)  COLO 205 colon                    TGI  > 100 µM

Go through the items and report each one's TGI.
1. Nc1nccc(C#Cc2cncnc2Nc2ccc(OCc3cccc(F)c3)c(Cl)c2)n1
2. CN(Cc1cnc2nc(N)nc(N)c2n1)c1ccc(C(=O)NC2CCCCC2)cc1
3. Cc1c(/C=N\NC(=S)N(C)CCN(C)C(=S)N/N=C\c2c(C)n(C)n(-c3ccccc3)c2=O)c(=O)n(-c2ccccc2)n1C
4. Cc1oc2nc(N(C)C)n3c(C)nnc3c2c1C

1: 8.6 µM; 2: > 100 µM; 3: > 100 µM; 4: > 100 µM

Go through the items and report each one's TGI.
1. CCC/C(Cl)=N/OC(=O)Nc1cccc(F)c1
2. COC(=O)Oc1nn(C(=O)OC)c(=O)c2ccccc12 (tested in a mixture with another compound)
3. COC(=O)[C@@H](COC(=O)/C=C/c1ccc(OC(C)=O)c(OC(C)=O)c1)NC(=O)/C=C/c1ccc(OC(C)=O)c(OC(C)=O)c1

1. 3.98 µM
2. > 100 µM
3. 35.3 µM

* * *

Test system: BT-549 breast
Assay: NCI tumour cell line growth inhibition, 48 h; in the data active means GI50 below about 0.43 µM; inactive means the rest
Pick from Y for active, N for inactive when you respond.

Worked examples follow.
In [3]: df
Out[3]:
                                   compound  class
0  C[C@@H](Oc1cc(-n2cnc3ccc(OCC4CCN(C)CC4)cc32)sc1C(N)=O)c1ccccc1C(F)(F)F      N
1  CN(C)c1ccc(N=C(C#N)c2nc(N)nc(N3CCOCC3)n2)cc1      N
2  O=C1c2cccnc2-c2nc(-c3ccccc3)cc3c2c1nc1ccccc13      N

Field: outcome | Entry: CCN1C(=O)N(CC)C2C1NN=c1s/c(=C\c3ccc([N+](=O)[O-])cc3)c(=O)n12 (stereo not drawn)
N

* * *

For each record, write down the corresponding TGI.
Test system: NCI-H23 lung
Assay: NCI tumour cell line growth inhibition, 48 h
One number for each entry, in µM.

Examples from the recorded data:
In [3]: df
Out[3]:
                                   molecule  recorded_number
0           O=C(/C=C/c1cccnc1)/C=C/c1cccnc1              6.7
1  CC(=O)OCC1OC(n2cnc3c(I)nc(I)nc32)C(OC(C)=O)C1OC(C)=O (configuration not stated)             16.7
2   O=C1Nc2ccccc2/C1=C\c1c(Cl)[nH]c2ccccc12             16.1
3  Cn1cccc1C1CC(=O)N(CCC[Se]C#N)C1=O (configuration not stated)             7.88

# context switch: different molecule, same TGI
State, for NCI-H23 lung, measured TGI of the molecule listed here: CC(C)=CCC/C(C)=C/CC/C(C)=C/C(O)c1ccccc1 (configuration not stated)
55.8

* * *

Test system: LOX IMVI melanoma
Assay: NCI tumour cell line growth inhibition, 48 h
For each record, write down the corresponding TGI.
Answers are plain numbers, in µM.

Examples from the recorded data:
In [3]: df
Out[3]:
                                   molecule  experimental_endpoint  recorded_number
0  CC(C)=CCC/C(C)=C/CC/C(C)=C/C(O)c1ccccc1 (centres undefined)                    TGI             35.9
1  CC1=C(C(=O)Nc2cc(F)c(F)cc2F)C(c2cccc([N+](=O)[O-])c2)C(C(=O)Nc2ccccc2C(F)(F)F)=C(C)N1 (centres undefined)                    TGI             39.4
2      c1ccc(NC2(c3nnnn3C3CCCCC3)CCNCC2)cc1                    TGI             30.7
3  Cc1ccc(S(=O)(=O)OC(C=O)C(O)C(O)COC(c2ccccc2)(c2ccccc2)c2ccccc2)cc1 (centres undefined)                    TGI             35.2

# context switch: different molecule, same TGI
Consider the molecule C=C1C(=O)OC2C3C(=C)[C@@H](OC(C)=O)CC3C(C)=CC(OC(=O)C(C)(O)C(C)OC(C)=O)[C@@H]12 (some centres undefined) . State its measured TGI.
19.4

* * *

For each record, write down the corresponding TGI.
Tested on: OVCAR-4 ovarian
Assay: NCI tumour cell line growth inhibition, 48 h

                                   compound    tested_system  experimental_endpoint    result
0  Cc1ccc2c(c1)/C(=N\N=C/c1cn(C(C)C)c3ccccc13)C(=O)N2  OVCAR-4 ovarian                    TGI  > 100 µM
1                                 N=C1SCCS1  OVCAR-4 ovarian                    TGI  > 100 µM
2                      ClCc1nc2cc(Cl)ccc2o1  OVCAR-4 ovarian                    TGI   3.45 µM

Go through the items and report each one's TGI.
1. C[C@H]1ON2CCC[C@@H]2[C@@H]1C(=O)N1C2CC3CCC2(CS1(=O)=O)C3(C)C (stereo partly specified)
2. O=c1[nH]cnc2c1nnn2C1C=C(CO)C(O)C1O (stereo unspecified)

> 100 µM
> 100 µM

Consider the compound COc1cccc(C2C3=C(COC3=O)N(CCO)c3cc4c(cc32)CCC4)c1 (stereo unspecified) . State its measured TGI.
> 50 µM

* * *

Test system: IGROV1 ovarian
Test: NCI tumour cell line growth inhibition, 48 h
experimental endpoint: TGI

Examples from the recorded data:
>>> print(df.to_string())
                                   compound   result
0  CC[n+]1c(/C=C/c2ccc(N(CCCl)CCCl)cc2)ccc2cc(Br)ccc21  18.4 µM
1                    CCCCC[C@H]1CC=CC(=O)O1  27.3 µM

Go through the items and report each one's TGI.
1. COc1ccc2c(c1)CC[C@@H]1C2CC[C@]2(C)C(=O)N(C)C(=O)CC12 (stereo not given in full)
2. O=C1NCC2=C1CCC1c3ccccc3CCN21 (stereo not given)
3. O=[N+]([O-])c1ccc(N=Nc2c(O)[nH]c3ccc(Br)cc23)c([N+](=O)[O-])c1
4. CCOC(=O)/C(=C/c1c(-c2ccccc2)[nH]c2ccccc12)C(=O)c1ccc(Cl)cc1
5. O=C1C2=Cc3ccccc3CCN2c2ccc([N+](=O)[O-])cc21
6. COC(=O)[C@@H](COC(=O)/C=C/c1ccc(OC(C)=O)c(OC(C)=O)c1)NC(=O)/C=C/c1ccc(OC(C)=O)c(OC(C)=O)c1

1. > 100 µM
2. > 100 µM
3. 45.7 µM
4. > 100 µM
5. > 100 µM
6. > 100 µM

Go through the items and report each one's TGI.
1. CN(C)c1ccc(C=Nc2ccc(-c3nc4ccccc4o3)cc2)cc1
2. Nc1nc(Cl)c(N)c(NCC2(CO)CC(O)C2)n1 (stereo not given)

["> 100 µM", "> 100 µM"]
